Assignment: determine reported PROTEASE % INHIB. for the given compounds.
measuredTarget: HIV-1 protease (Human immunodeficiency virus type 1 group M subtype B)
measurementNotes: biochemical
conditions: Table II; enzyme HIV-1; DOSE 10.000 (unit not given)
One number for each entry, in %.

Below are worked cases with known answers.
>>> df
                                   compound  attributemeasured  obsvalue
0  CCCC1(CCc2ccccc2)CC(O)=C(C(c2cccc(NS(=O)(=O)c3ccc(C(F)(F)F)cn3)c2)C(C)(C)C)C(=O)O1 (stereo not shown)  PROTEASE % INHIB.     97.41
1  CCCC1(CCc2ccc(F)cc2)CC(O)=C(C(c2cccc(NS(=O)(=O)c3cccc4cccnc34)c2)C(C)(C)C)C(=O)O1 (stereo not shown)  PROTEASE % INHIB.     97.07
2  CCC[C@@]1(CCc2ccccc2)CC(O)=C([C@H](CC)c2cccc(NS(=O)(=O)c3ccc(N)cn3)c2)C(=O)O1 (single isomer, unassigned) [Example 314]  PROTEASE % INHIB.     88.75

Then there is this compound:
For the record CCC[C@@]1(CCc2ccc(F)cc2)CC(O)=C([C@@H](c2cccc(NS(=O)(=O)c3ccc(C#N)cn3)c2)C(C)(C)C)C(=O)O1 (single isomer, unassigned) , what value of PROTEASE % INHIB. is listed for HIV-1 protease (Human immunodeficiency virus type 1 group M subtype B)?
97.43
